Test system: MOLM14;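 also: after 48 h exposure read by CellTiter-Glo luminescence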
Assay: cell viability relative to vehicle control; higher = less cytotoxic
Settings: 10 µM; SRSF2 genotype: SRSF2 wt/wt
Let's look at some compounds and their measured cell viability.
Note: unit % is implicit; provide only the numeric part.

- compound: "CC(CN(C)C)Oc1nc(Nc2cc3cccc(Cl)c3cn2)cnc1C#N (configuration not stated)"
  cell viability [%]: 8.7
- compound: "CNC(=O)c1ccc(N2C(=S)N(c3cnc(C#N)c(C(F)(F)F)c3)C(=O)C23CCC3)cc1F"
  cell viability [%]: 109
- compound: "O=C1NCCc2[nH]c(-c3ccncc3)cc21"
  cell viability [%]: 0.86
- compound: "N[C@@H](Cc1cc(I)c(Oc2cc(I)c(O)c(I)c2)c(I)c1)C(=O)O [L-Thyroxine]"
  cell viability [%]: 106
- compound: "Nc1ccc(S(=O)(=O)Nc2ncccn2)cc1 [Sodium sulfadiazine]"
  cell viability [%]: 102

Query string: So what's the measured cell viability for this one? Cc1ccc2nc(CN(CCN(Cc3nc4ccc(C)cc4[nH]3)Cc3nc4ccc(C)cc4[nH]3)Cc3nc4ccc(C)cc4[nH]3)[nH]c2c1
Result string: 0.53

Query string: So what's the measured cell viability for this one? CCC(C)C(NC(=O)C(C(C)CC)N(C)C(C)=O)C(=O)NC(C(=O)NC(CC(C)C)C(=O)C1(C)CO1)C(C)O (configuration not stated) [Epoxomicin (BU-4061T)]
Result string: 0.17

Query string: So what's the measured cell viability for this one? Cc1c(CN2CCC(Nc3ncnc4sc(CC(F)(F)F)cc34)CC2)ccc2[nH]c(C#N)cc12
Result string: 3.33

Query string: So what's the measured cell viability for this one? C[N+](C)(C)C[C@H](O)CC(=O)[O-] [L-carnitine (Levocarnitine)]
Result string: 103

Query string: So what's the measured cell viability for this one? C=C1CC[C@H](O)C/C1=C/C=C1\CCC[C@]2(C)[C@@H]([C@H](C)/C=C/[C@H](C)C(C)C)CC[C@@H]12 [Vitamin D2 (Ergocalciferol)]
Result string: 102

Query string: So what's the measured cell viability for this one? O=S(=O)(O)NC1CCCCC1 [Cyclamic acid]
Result string: 104

Query string: So what's the measured cell viability for this one? O=C(NCc1ccccc1)c1csc(Nc2ccncn2)n1 [Thiazovivin]
Result string: 86.8

Query string: So what's the measured cell viability for this one? COc1c(N2CCNC(C)C2)c(F)cc2c(=O)c(C(=O)O)cn(C3CC3)c12 (configuration not stated) [Gatifloxacin]
Result string: 101

Query string: So what's the measured cell viability for this one? COC(=O)c1c2c(c3ccccc3c1O)OC(C)(C)C=C2 [Rubimaillin]
Result string: 3.56

Query string: So what's the measured cell viability for this one? C=CCc1cccc(/C=N/NC(=O)CN2CCN(Cc3ccccc3)CC2)c1O
Result string: 8.85

Query string: So what's the measured cell viability for this one? CS(=O)(=O)CCNCc1ccc(-c2ccc3ncnc(Nc4ccc(OCc5cccc(F)c5)c(Cl)c4)c3c2)o1 [Lapatinib]
Result string: 75.6

Query string: So what's the measured cell viability for this one? CC1(C)O[C@@H]2C[C@H]3[C@@H]4CCC5=CC(=O)C=C[C@]5(C)[C@@]4(F)[C@@H](O)C[C@]3(C)[C@]2(C(=O)CO)O1 [Triamcinolone Acetonide]
Result string: 95.3

Reference source: the supplement of paper PMC10981050
